- System: A549-CANX-COX4
- runDescription: lowest phenotypically active concentration; higher = less potent
- conditionNotes: treatment time: 24 h
Structures can show the parent of a compound that is named as a salt.
Catalogue of lowest phenotypically active concentration readings, one per entry.
Supply the numeric figure in µM, leaving out any unit text.

Reference set, count: 3
compound="C=C1C(=O)O[C@@H]2C=C(C)CCC=C(C)CC[C@@H]12 [Costunolide]" unitstext=µM value=9
compound="Nc1nccc2c1ncn2[C@@H]1C=C(CO)[C@@H](O)[C@H]1O [3-Deazaneplanocin A hydrochloride]" unitstext=µM value=1
compound=CN(C)c1ccc(/C=C2\C(=O)Nc3ccccc32)cc1 unitstext=µM value=9

lowest phenotypically active concentration value, target or system A549-CANX-COX4, for `C[C@@H](N)[C@H]1CC[C@H](C(=O)Nc2ccncc2)CC1` : 9

Noted lowest phenotypically active concentration for `O=C(CCCCSc1nc(-c2ccc(-c3ccccc3)cc2)cc(=O)[nH]1)NO` , tested on A549-CANX-COX4: 1

A549-CANX-COX4 data for `N#C/C(=C/c1ccc(O)c(O)c1)C(=O)NCCCCc1ccccc1` ; its lowest phenotypically active concentration: 9

Sample `CCCOc1ccc(CCc2nc3cc(-c4c(C)noc4C)ccc3n2CCN2CCOCC2)cc1` , system: A549-CANX-COX4. Its lowest phenotypically active concentration is 9

// assay A549-CANX-COX4, entry `COc1ccc2c(NC(=O)Nc3cccc(C(F)(F)F)n3)ccnc2c1` , lowest phenotypically active concentration value = 9

# `COc1ccc2cc1Oc1ccc(cc1)C[C@H]1c3cc(c(OC)cc3CCN1C)Oc1c(OC)c(OC)cc3c1[C@H](C2)N(C)CC3` with A549-CANX-COX4: lowest phenotypically active concentration is 1

Entry Fc1ccccc1CNCc1ccc(-c2ccnc3[nH]ccc23)cc1 [OXA 06 dihydrochloride] : lowest phenotypically active concentration on A549-CANX-COX4 = 1

Lab note: compound CC(=O)NC1=NN(C(C)=O)C(C)(c2ccccc2)S1 (stereo not drawn) tested on A549-CANX-COX4; recorded lowest phenotypically active concentration was 3

For the compound `COc1cc2nc(-c3cc(F)ccc3O)nc(N[C@@H]3CNC[C@H]3C(C)(C)O)c2cc1OC` , the measured lowest phenotypically active concentration on A549-CANX-COX4 was 9

The value of lowest phenotypically active concentration recorded for `CN[C@H]1CC[C@@H](c2ccc(Cl)c(Cl)c2)c2ccccc21` when tested on A549-CANX-COX4 reads 9

====

- Tested on: HepG2-GM130-SQSTM1
- runDescription: lowest phenotypically active concentration; higher = less potent
- conditionNotes: treatment time: 24 h
Documented lowest phenotypically active concentration across a set of compounds
Respond with the bare value in µM.

Check out these entries, answers already filled in.
compound="CNC1CCC2(C)C(=CCC3C2CCC24CN(C)C(C)C2CCC34)C1 (centres undefined)" unitstext=µM value=1
compound=N#Cc1cccc(-c2c[nH]c3ncnc(N4CCOCC4)c23)c1 unitstext=µM value=3
compound=COc1cc(OC)c2c(=O)[nH]c(-c3cc(C)c(OCCO)c(C)c3)nc2c1 unitstext=µM value=9

Form field lowest phenotypically active concentration for item `CCN1CCN(c2cc(-c3ccc(F)cc3)c3c(n2)CCCCCC3)CC1` on HepG2-GM130-SQSTM1: 9

Reported lowest phenotypically active concentration (HepG2-GM130-SQSTM1) for entry `O=C(NCCN1CCC(n2c(=O)[nH]c3ccccc32)CC1)c1cc2cc(F)ccc2[nH]1` is 9

Given the compound `NS(=O)(=O)C#Cc1ccccc1` and test system HepG2-GM130-SQSTM1, the measured lowest phenotypically active concentration is 3

Considering `CC(=O)Nc1ccc(C(=O)Nc2ccccc2N)cc1` , its lowest phenotypically active concentration with HepG2-GM130-SQSTM1 was recorded as 1

The compound `COc1cc(N2CCOCC2)ccc1Nc1ncc(Cl)c(Nc2ccccc2NS(C)(=O)=O)n1` , tested on HepG2-GM130-SQSTM1, showed lowest phenotypically active concentration of 3

====

- Tested on: HepG2-TP53BP1-CLTA
- runDescription: phenotypically active (imaging signature differs from DMSO and reproducible) at any of 0.3-9 uM (binary (1 = active, 0 = inactive)); higher = active
- conditionNotes: treatment time: 24 h
Where a name gives a salt, the structure may show the parent alone.
Collected phenotypically active values appear next to each entry.
Returns: the value as a bare number; no unit string appended.

Check out these entries, answers already filled in.
compound="NS(=O)(=O)c1cc(C2(O)NC(=O)c3ccccc32)ccc1Cl (stereo not drawn)" targetentity=HepG2-TP53BP1-CLTA measuredquantity="phenotypically active" value=0
compound=CN(C)CCCNc1c2c(=O)n(C)c(=O)nc-2n(C)c2ccccc12 targetentity=HepG2-TP53BP1-CLTA measuredquantity="phenotypically active" value=1
compound=CO[C@@H]1[C@H](N(C)C(=O)c2ccccc2)C[C@H]2O[C@]1(C)n1c3ccccc3c3c4c(c5c6ccccc6n2c5c31)C(=O)NC4 targetentity=HepG2-TP53BP1-CLTA measuredquantity="phenotypically active" value=1
compound=Nc1cc(C(F)(F)F)c(-c2cc(N3CCOCC3)nc(N3CCOCC3)n2)cn1 targetentity=HepG2-TP53BP1-CLTA measuredquantity="phenotypically active" value=1
compound="CO[C@H]1C=CC=C(C)C(=O)NC2=CC(=O)C(NCCN(C)C)=C(C[C@@H](C)C[C@H](OC)[C@H](O)[C@@H](C)C=C(C)[C@@H]1OC(N)=O)C2=O [17-DMAG hydrochloride]" targetentity=HepG2-TP53BP1-CLTA measuredquantity="phenotypically active" value=1

// recorded phenotypically active for `O=C(c1ccc(C(=O)N2CCC(N3CCCC3)CC2)c(Nc2ccccc2)c1)N1CCC(N2CCCC2)CC1` : 0

Reported phenotypically active ( `O=C(O)CCN(O)C(=O)CCCCCCCCC1CC1` ) = 0

Notebook: O=C(O)[C@@H]1[C@H]2C[C@H]3c4[nH]c5ccccc5c4CCN3C[C@@H]2CC[C@@H]1O [Yohimbinic acid monohydrate] , phenotypically active read as 0

====

- Tested on: A549-TUBA1B-RELA
- runDescription: phenotypically active (imaging signature differs from DMSO and reproducible) at any of 0.3-9 uM (binary (1 = active, 0 = inactive)); higher = active
- conditionNotes: treatment time: 24 h
Structures can show the parent of a compound that is named as a salt.
Lab note: assign the record to one of active, inactive

Here are 4 molecules together with their reported answers.
molecule=CN1c2ccccc2C(=O)N2CCc3c([nH]c4ccccc34)[C@H]21 classification=active
molecule="CC(COc1ccccc1)N(CCCl)Cc1ccccc1 (stereo not given)" classification=inactive
molecule="CCCC1(CCC)CCC2(CCN(CCCN(CC)CC)C2)CC1 [Atiprimod dihydrochloride]" classification=active
molecule=COC(=O)c1c(C)cc(OC(=O)c2c(C)cc(O)c(C=O)c2O)c(C)c1O classification=inactive

Problem: Any idea what this test logged for `COc1ccc(-c2cc3c(C)nc(N)nc3n([C@H]3CC[C@H](OCCO)CC3)c2=O)cn1` ?
Result: active

====

- System: A549-TP53BP1-CLTA
- runDescription: phenotypically active (imaging signature differs from DMSO and reproducible) at any of 0.3-9 uM (binary (1 = active, 0 = inactive)); higher = active
- conditionNotes: treatment time: 24 h
Structures can show the parent of a compound that is named as a salt.
Write down one outcome, taken from yes = active, no = inactive

Example results:
molecule="CC1=CC(=O)CC(C)(C)C1(O)/C=C/C(C)=C\\C(=O)O (mixture of isomers) [(+/-)-2-cis-4-trans-Abscisic acid]" targetentity=A549-TP53BP1-CLTA classification=no
molecule="C1CCN2C[C@@H]3C[C@@H](CN4CCCC[C@@H]34)[C@H]2C1 [Sparteine (-)]" targetentity=A549-TP53BP1-CLTA classification=no

Problem: // return assay outcome for CCC(=O)OCC(=O)[C@@]1(OC(=O)CC)[C@@H](C)C[C@H]2[C@@H]3CCC4=CC(=O)C=C[C@]4(C)[C@@]3(Cl)[C@@H](O)C[C@@]21C [beclomethasone-dipropionate]
Result: yes

Problem: Give the logged outcome of this assay for the following molecule: COc1ccc(N(C)c2nc(C)nc3ccccc23)cc1 [MPC 6827 hydrochloride]
Result: yes

Problem: I'd appreciate the recorded outcome for `Nc1ccc(N=Nc2ccccc2)c(N)n1` from this test.
Result: no

Problem: Entry `CNCC[C@H](Oc1cccc2ccccc12)c1cccs1` : call = ?
Result: no

Problem: Test call, this molecule: `CN1[C@@H]2CC[C@H]1C[C@@H](OC(c1ccccc1)c1ccccc1)C2`
Result: yes

Problem: Check the results log: what was the call for `N=C1NC(=O)/C(=C\c2ccc(O)cc2)S1` ?
Result: no

====

- Test system: HepG2-GM130-SQSTM1
- runDescription: phenotypically active (imaging signature differs from DMSO and reproducible) at any of 0.3-9 uM (binary (1 = active, 0 = inactive)); higher = active
- conditionNotes: treatment time: 24 h
Where a name gives a salt, the structure may show the parent alone.
Outcome (select one): true = active, false = inactive

compound="O=C(Nc1cccc(Cl)c1)Nc1ncc(CCNc2ncnc3ccsc23)s1 [SNS 314 mesylate]" classification=true
compound="CC[N+](CC)(CC)CCOc1cccc(OCC[N+](CC)(CC)CC)c1OCC[N+](CC)(CC)CC [gallamine-triethiodide]" classification=false
compound="CC1(COc2ccc(CC3SC(=O)NC3=O)cc2)CCCCC1 (stereo not given) [Ciglitazone]" classification=false
compound=Cn1cc(-c2ccc3nnc(Sc4ccc5ncccc5c4)n3n2)cn1 classification=false

Problem: Recorded test call requested for `CCc1cccc(CC)c1NC(=O)N1Cc2[nH]nc(NC(=O)c3ccc(N4CCN(C)CC4)cc3)c2C1`
Result: true

The origin of these recorded values is the supplement of paper PMC7411054.
